Hello, the source for this data is paper PMC10364322, in case you need it.

- Test system: hiPSC-CMs (iCell-Cardiomyocytes^2)
- assay: MEA impedance (cytotoxicity readout) in hiPSC-CMs
- stated conditions: 10 µM; 72h
quantity: Imp (impedance), % change from baseline (%)
Form entry: value (%) — number only.

Example cases with answers are listed next.
compound	assay system	result value
C[C@H](CS)C(=O)N1CCC[C@H]1C(=O)O	hiPSC-CMs (iCell-Cardiomyocytes^2)	-1
C#Cc1cccc(Nc2ncnc3cc(OCCOC)c(OCCOC)cc23)c1	hiPSC-CMs (iCell-Cardiomyocytes^2)	-13
CC1(C)S[C@@H]2[C@H](NC(=O)[C@H](N)c3ccc(O)cc3)C(=O)N2[C@H]1C(=O)O	hiPSC-CMs (iCell-Cardiomyocytes^2)	1
CC(=O)Oc1ccccc1C(=O)O	hiPSC-CMs (iCell-Cardiomyocytes^2)	-4
COc1nc(N)nc2c1ncn2[C@@H]1O[C@H](COP(=O)(N[C@@H](C)C(=O)OCC(C)(C)C)Oc2cccc3ccccc23)[C@@H](O)[C@@]1(C)O (stereo partly drawn)	hiPSC-CMs (iCell-Cardiomyocytes^2)	-11

We next turn to a different compound, shown below.
Dear colleague, please send me the reported Imp (impedance), % change from baseline for `CC(C)(Sc1cc(C(C)(C)C)c(O)c(C(C)(C)C)c1)Sc1cc(C(C)(C)C)c(O)c(C(C)(C)C)c1` when you can.
-12

* * *

- Tested on: hiPSC-CMs (iCell-Cardiomyocytes^2)
- stated conditions: 0.1 µM, 48h
EAD, number of observations/total well numbers values by entry

In [3]: df
Out[3]:
                                   molecule  result_value
0  Cc1cn(-c2cc(NC(=O)c3ccc(C)c(Nc4nccc(-c5cccnc5)n4)c3)cc(C(F)(F)F)c2)cn1 [Nilotinib]           0/5
1  COc1cccc2c1C(=O)c1c(O)c3c(c(O)c1C2=O)C[C@@](O)(C(=O)CO)C[C@@H]3O[C@H]1C[C@H](N)[C@H](O)[C@H](C)O1 [Doxorubicin]           0/5
2  COc1cc2c(Nc3ccc(Br)cc3F)ncnc2cc1OCC1CCN(C)CC1 [Vandetanib]           0/5

Identify EAD, number of observations/total well numbers associated with the molecule N=C(N)c1ccc(OCCCCCOc2ccc(C(=N)N)cc2)cc1 [Pentamidine]
0/6

* * *

- System: hiPSC-CMs (iCell-Cardiomyocytes^2)
- stated conditions: 0.1 µM, 48h
quantity: Cessation of beating, number of observations/total well numbers

Consider the reported Cessation of beating, number of observations/total well numbers for these molecules:
                                   molecule  result_value
0  COc1cc2c(Nc3ccc(Br)cc3F)ncnc2cc1OCC1CCN(C)CC1 [Vandetanib]           0/5
1  Cc1cn(-c2cc(NC(=O)c3ccc(C)c(Nc4nccc(-c5cccnc5)n4)c3)cc(C(F)(F)F)c2)cn1 [Nilotinib]           0/5
2  N=C(N)c1ccc(OCCCCCOc2ccc(C(=N)N)cc2)cc1 [Pentamidine]           0/6

Continue with the molecule presented below.
Identify measured Cessation of beating, number of observations/total well numbers associated with COc1cccc2c1C(=O)c1c(O)c3c(c(O)c1C2=O)C[C@@](O)(C(=O)CO)C[C@@H]3O[C@H]1C[C@H](N)[C@H](O)[C@H](C)O1 [Doxorubicin]
0/5

* * *

# reported EAD, number of observations/total well numbers; entries follow
- Test system: hiPSC-CMs (iCell-Cardiomyocytes^2)
- stated conditions: 1 µM, 2h

For orientation, consider the following solved cases.
compound	result value
N=C(N)c1ccc(OCCCCCOc2ccc(C(=N)N)cc2)cc1	0/6
COc1cc2c(Nc3ccc(Br)cc3F)ncnc2cc1OCC1CCN(C)CC1	0/5
COc1nc(N)nc2c1ncn2[C@@H]1O[C@H](COP(=O)(N[C@@H](C)C(=O)OCC(C)(C)C)Oc2cccc3ccccc23)[C@@H](O)[C@@]1(C)O (stereo partly shown)	0/5

// next entry
Please report EAD, number of observations/total well numbers for the following compound: `C#Cc1cccc(Nc2ncnc3cc(OCCOC)c(OCCOC)cc23)c1`
0/5

* * *

- Tested on: hiPSC-CMs (iCell-Cardiomyocytes^2)
- stated conditions: 1 µM, 96h
Please use criterion met for BR (beating rate), % change from baseline under -20% and criterion not met for everything else, ties included.

Does `N=C(N)c1ccc(OCCCCCOc2ccc(C(=N)N)cc2)cc1` have BR (beating rate), % change from baseline strictly under -20%?
criterion met

Record `CC1(C)S[C@@H]2[C@H](NC(=O)[C@H](N)c3ccc(O)cc3)C(=O)N2[C@H]1C(=O)O` : is its BR (beating rate), % change from baseline strictly below -20%?
criterion met

Field: below-cutoff. Rule: recorded BR (beating rate), % change from baseline strictly less than -20%. Subject: `CC(C)(Sc1cc(C(C)(C)C)c(O)c(C(C)(C)C)c1)Sc1cc(C(C)(C)C)c(O)c(C(C)(C)C)c1`
criterion not met

BR (beating rate), % change from baseline strictly < -20% for this molecule? `C[C@H](CS)C(=O)N1CCC[C@H]1C(=O)O`
criterion not met

State whether -20% exceeds BR (beating rate), % change from baseline recorded for `COc1cc2c(Nc3ccc(Br)cc3F)ncnc2cc1OCC1CCN(C)CC1` .
criterion met

# check: BR (beating rate), % change from baseline < -20% for COc1nc(N)nc2c1ncn2[C@@H]1O[C@H](COP(=O)(N[C@@H](C)C(=O)OCC(C)(C)C)Oc2cccc3ccccc23)[C@@H](O)[C@@]1(C)O (stereo partly shown)
criterion not met

Is BR (beating rate), % change from baseline strictly under -20% for the entry O=C(O)COCCN1CCN(C(c2ccccc2)c2ccc(Cl)cc2)CC1 (stereo not shown) ?
criterion not met

* * *

Reported FPDc (field-potential duration corrected by beat-rate), % change from baseline values for a set of compounds
- Test system: hiPSC-CMs (iCell-Cardiomyocytes^2)
- stated conditions: 0.3 µM, 24h
Express it in %; write the number only.

Known results for compounds:
compound	result value
Cc1cn(-c2cc(NC(=O)c3ccc(C)c(Nc4nccc(-c5cccnc5)n4)c3)cc(C(F)(F)F)c2)cn1	52.4
O=C(O)COCCN1CCN(C(c2ccccc2)c2ccc(Cl)cc2)CC1 (stereo not drawn)	13
COc1nc(N)nc2c1ncn2[C@@H]1O[C@H](COP(=O)(N[C@@H](C)C(=O)OCC(C)(C)C)Oc2cccc3ccccc23)[C@@H](O)[C@@]1(C)O (stereo partly drawn)	-2.7
CCN(CC)CCNC(=O)c1c(C)[nH]c(/C=C2\C(=O)Nc3ccc(F)cc32)c1C	80.7
CC(C)(Sc1cc(C(C)(C)C)c(O)c(C(C)(C)C)c1)Sc1cc(C(C)(C)C)c(O)c(C(C)(C)C)c1	3.8
COc1cccc2c1C(=O)c1c(O)c3c(c(O)c1C2=O)C[C@@](O)(C(=O)CO)C[C@@H]3O[C@H]1C[C@H](N)[C@H](O)[C@H](C)O1	-14.6
N=C(N)c1ccc(OCCCCCOc2ccc(C(=N)N)cc2)cc1	4.5
COc1cc2c(Nc3ccc(Br)cc3F)ncnc2cc1OCC1CCN(C)CC1	112

Below: the item to evaluate.
Please give measured FPDc (field-potential duration corrected by beat-rate), % change from baseline of the following entry: `C#Cc1cccc(Nc2ncnc3cc(OCCOC)c(OCCOC)cc23)c1`
7.4

* * *

Measured FPDc (field-potential duration corrected by beat-rate), % change from baseline, listed per entry for reference.
- Tested on: hiPSC-CMs (iCell-Cardiomyocytes^2)
- stated conditions: 3 µM, 96h

Input `C[C@H](CS)C(=O)N1CCC[C@H]1C(=O)O` , output reported FPDc (field-potential duration corrected by beat-rate), % change from baseline.
13.5±1.6%

Kindly indicate its recorded FPDc (field-potential duration corrected by beat-rate), % change from baseline. Item: O=C(O)COCCN1CCN(C(c2ccccc2)c2ccc(Cl)cc2)CC1 (centres unmarked)
12.1±5%

Answer with reported FPDc (field-potential duration corrected by beat-rate), % change from baseline of `CC(C)(Sc1cc(C(C)(C)C)c(O)c(C(C)(C)C)c1)Sc1cc(C(C)(C)C)c(O)c(C(C)(C)C)c1`
0.1±7%

Identify measured FPDc (field-potential duration corrected by beat-rate), % change from baseline corresponding to `CC1(C)S[C@@H]2[C@H](NC(=O)[C@H](N)c3ccc(O)cc3)C(=O)N2[C@H]1C(=O)O`
9.6±6.7%

For `C#Cc1cccc(Nc2ncnc3cc(OCCOC)c(OCCOC)cc23)c1` , write its FPDc (field-potential duration corrected by beat-rate), % change from baseline.
11.7±1.1%

* * *

- System: hiPSC-CMs (iCell-Cardiomyocytes^2)
- assay: MEA impedance (cytotoxicity readout) in hiPSC-CMs
- stated conditions: 0.3 µM, 96h
Imp (impedance), % change from baseline by entry:
Give just the numeric value; % need not be written.

Sample records with Imp (impedance), % change from baseline:
compound	assay system	scale unit	Imp (impedance), % change from baseline
CCN(CC)CCNC(=O)c1c(C)[nH]c(/C=C2\C(=O)Nc3ccc(F)cc32)c1C	hiPSC-CMs (iCell-Cardiomyocytes^2)	%	-3
C#Cc1cccc(Nc2ncnc3cc(OCCOC)c(OCCOC)cc23)c1	hiPSC-CMs (iCell-Cardiomyocytes^2)	%	-3
COc1cccc2c1C(=O)c1c(O)c3c(c(O)c1C2=O)C[C@@](O)(C(=O)CO)C[C@@H]3O[C@H]1C[C@H](N)[C@H](O)[C@H](C)O1	hiPSC-CMs (iCell-Cardiomyocytes^2)	%	-81
N=C(N)c1ccc(OCCCCCOc2ccc(C(=N)N)cc2)cc1	hiPSC-CMs (iCell-Cardiomyocytes^2)	%	-5
Cc1cn(-c2cc(NC(=O)c3ccc(C)c(Nc4nccc(-c5cccnc5)n4)c3)cc(C(F)(F)F)c2)cn1	hiPSC-CMs (iCell-Cardiomyocytes^2)	%	-1

For hiPSC-CMs (iCell-Cardiomyocytes^2), give Imp (impedance), % change from baseline of the listed compound: O=C(O)COCCN1CCN(C(c2ccccc2)c2ccc(Cl)cc2)CC1 (stereo not drawn)
-5
